Organism: Rattus norvegicus
Assay: Inhibition of tetraethylammonium chloride(TEA)-induced acetylcholine hyperactivity in rat tracheal segments by the compound.
Type: functional
Settings: Trachea
READOUT KIND: IC50
Just the number plus its unit, please.

Query: IC50; subject: COc1ccc(CCN(C)CCCC(C#N)(c2ccc(OC)c(OC)c2)C(C)C)cc1OC (configuration not stated) 1300 nM

How about O=C(Cc1cn(Cc2ccc(F)cc2)c2ccccc12)Nc1ccncc1 ? 21 nM

###

List of IC50 values.
Tested on: Rattus norvegicus
Test: Compound was evaluated in vivo for inhibition of Ovalbumin induced rhinitis in anesthetized rats after topical administration (nasal perfusion).
Format: functional, organism-based
# value in µM; strip the unit string

[
  {
    "RECORD SMILES": "COc1ccc(CN(CCN(C)C)c2ccccn2)cc1",
    "IC50 (µM)": 7.41
  },
  {
    "RECORD SMILES": "O=C(Cc1cn(Cc2ccc(F)cc2)c2ccccc12)Nc1ccncc1",
    "IC50 (µM)": 0.25
  }
]

Okay, next one:
Sample c1ccc(CN(CC2=NCCN2)c2ccccc2)cc1 — what was its IC50? 1.26
